Target: Voltage-gated inwardly rectifying potassium channel KCNH2 (Homo sapiens)
Sequence (Q12809 whole entry): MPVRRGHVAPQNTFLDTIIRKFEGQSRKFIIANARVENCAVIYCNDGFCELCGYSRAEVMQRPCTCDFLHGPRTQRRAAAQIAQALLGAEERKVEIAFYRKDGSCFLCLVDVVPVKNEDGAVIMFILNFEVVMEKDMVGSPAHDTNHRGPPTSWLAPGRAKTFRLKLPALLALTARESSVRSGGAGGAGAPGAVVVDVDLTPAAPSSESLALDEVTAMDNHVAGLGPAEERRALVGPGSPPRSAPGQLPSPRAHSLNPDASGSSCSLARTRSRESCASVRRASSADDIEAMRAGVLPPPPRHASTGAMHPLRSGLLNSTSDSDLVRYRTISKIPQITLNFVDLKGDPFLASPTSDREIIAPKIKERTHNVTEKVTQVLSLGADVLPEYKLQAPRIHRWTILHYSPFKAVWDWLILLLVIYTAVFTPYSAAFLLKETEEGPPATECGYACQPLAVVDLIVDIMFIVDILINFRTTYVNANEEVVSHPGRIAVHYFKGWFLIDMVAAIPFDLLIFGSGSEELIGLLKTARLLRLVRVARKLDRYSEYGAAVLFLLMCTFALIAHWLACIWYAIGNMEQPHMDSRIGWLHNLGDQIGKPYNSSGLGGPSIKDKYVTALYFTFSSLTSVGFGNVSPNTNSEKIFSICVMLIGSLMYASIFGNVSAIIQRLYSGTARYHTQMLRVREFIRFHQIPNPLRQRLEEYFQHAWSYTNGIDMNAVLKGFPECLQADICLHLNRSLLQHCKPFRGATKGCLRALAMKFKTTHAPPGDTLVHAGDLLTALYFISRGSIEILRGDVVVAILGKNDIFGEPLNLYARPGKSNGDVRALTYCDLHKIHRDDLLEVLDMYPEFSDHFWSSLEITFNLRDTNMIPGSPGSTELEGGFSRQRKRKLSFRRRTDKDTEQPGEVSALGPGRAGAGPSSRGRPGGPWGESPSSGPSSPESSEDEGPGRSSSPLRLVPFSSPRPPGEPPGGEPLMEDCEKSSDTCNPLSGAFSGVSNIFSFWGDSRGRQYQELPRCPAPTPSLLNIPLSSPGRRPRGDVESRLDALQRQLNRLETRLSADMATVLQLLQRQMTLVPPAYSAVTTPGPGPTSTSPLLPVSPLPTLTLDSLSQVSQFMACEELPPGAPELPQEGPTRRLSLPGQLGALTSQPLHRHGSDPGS
Test: Inhibition of human ERG K+ currents by GLP assay
Type: toxicity
measurement.label: IC50
# number then unit; no other words

**Query** Write down measured IC50 (Voltage-gated inwardly rectifying potassium channel KCNH2 (Homo sapiens)) for this compound. `Cc1ncn(CC(=O)N2CCN(c3sc(C(F)(F)F)nc3-c3cnc(C(F)(F)F)nc3)C[C@H]2CCO)n1`
**Result** 15.4 µM

----------
Biological target: C-X-C chemokine receptor type 3 (Mus musculus, UniProt O88410)
Sequence (O88410 whole entry): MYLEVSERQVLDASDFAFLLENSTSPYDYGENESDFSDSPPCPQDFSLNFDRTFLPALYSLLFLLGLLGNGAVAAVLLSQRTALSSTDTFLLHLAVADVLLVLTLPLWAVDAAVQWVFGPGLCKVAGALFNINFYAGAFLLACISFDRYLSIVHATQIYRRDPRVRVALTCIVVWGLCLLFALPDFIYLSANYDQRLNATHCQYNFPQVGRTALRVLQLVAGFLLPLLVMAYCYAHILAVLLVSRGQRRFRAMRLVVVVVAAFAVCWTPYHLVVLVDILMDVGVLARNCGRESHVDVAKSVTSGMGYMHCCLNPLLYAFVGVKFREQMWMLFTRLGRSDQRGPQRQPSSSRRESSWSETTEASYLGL
Test: Antagonist activity at mouse CXCR3 expressed in CHO-K1 cells assessed as reduction in CXCL10 induced calcium flux by FLIPR method
Assay type: cell-based
measurement.label: pIC50
Answers are plain numbers, as −log10 of the molar value.

**Query** Give recorded pIC50. `Cc1ncn(CC(=O)N2CCN(c3sc(C(F)(F)F)nc3-c3cnc(C(F)(F)F)nc3)C[C@H]2CCO)n1`
**Result** 8.82

----------
Assay: Drug excretion in urine of Wistar rat assessed as unchanged drug at 1 mg/kg, iv
Type: ADME, organism-based
Settings: read-out: Drug excretion
measurement.label: dose excreted
# number then unit; no other words

**Query** Give recorded dose excreted. `Cc1ncn(CC(=O)N2CCN(c3sc(C(F)(F)F)nc3-c3cnc(C(F)(F)F)nc3)C[C@H]2CCO)n1`
**Result** 4.4%

----------
Experiment: Metabolic stability in rat liver microsomes assessed as intrinsic clearance at 1 uM and measured upto 15 mins in presence of NADPH regenerating system by LC-MS/MS analysis
Format: ADME, Microsome
Settings: read-out: CLH
Record form. Attribute: microsomal CLint at 1 µM. Fill in for each entry.
Numbers only, in µL/min/mg.

Give microsomal CLint at 1 µM for all compounds that follow.
1. CCc1ncn(CC(=O)N2CCN(c3sc(C(F)(F)F)nc3-c3cnc(C(F)(F)F)nc3)C[C@H]2CCO)n1
2. Cc1ccn(CC(=O)N2CCN(c3sc(C(F)(F)F)nc3-c3cnc(C(F)(F)F)nc3)C[C@@H]2CO)n1

**Result**
1: 13; 2: 13

----------
Test: Apparent permeability across apical to basolateral side in dog MDCK-II cells
Assay type: ADME, cell-based, Canis lupus familiaris
measurement.label: Papp A→B
# number then unit; no other words

**Query** Give recorded Papp A→B. `Cc1ncn(CC(=O)N2CCN(c3sc(C(F)(F)F)nc3-c3cnc(C(F)(F)F)nc3)C[C@H]2CCO)n1`
**Result** 1.5 ×10⁻⁶ cm/s

----------
Record form. Attribute: clearance. Fill in for each entry.
Experiment: Total clearance in Beagle dog plasma at 1 mg/kg, iv
Format: ADME, organism-based, Canis lupus familiaris
Answers are plain numbers, in mL/min/kg.

>>> readout_value("CCc1ncn(CC(=O)N2CCN(c3sc(C(F)(F)F)nc3-c3cnc(C(F)(F)F)nc3)C[C@H]2CCO)n1")
19
>>> readout_value("Cc1ccn(CC(=O)N2CCN(c3sc(C(F)(F)F)nc3-c3cnc(C(F)(F)F)nc3)C[C@@H]2CO)n1")
22

Proceeding to the next molecule to report its clearance.
**Query** Give recorded clearance. `Cc1ncn(CC(=O)N2CCN(c3sc(C(F)(F)F)nc3-c3cnc(C(F)(F)F)nc3)C[C@H]2CCO)n1`
**Result** 5

Reference source for all entries: ChEMBL document CHEMBL5247653
